Hey, just so you know, these numbers are from patent US20160257732A1.

// reported Neutralization IC50, H3-Perth09 per item
Target: HA of ca A/Perth/16/09 (H3N2) (influenza A virus)
Experiment: cell-based or functional assay
Enter your answer as a number in µg/mL; do not include the unit.

Binder: Antibody 11 (antibody, V domains shown) VH: QVQLQQSGPGLVKPSQTLSLTCAISGDSVSSYNAVWNWIRQSPSRGLEWLGRTYYRSGWYNDYAESVKSRITINPDTSKNQFSLQLNSVTPEDTAVYYCARSGHITVFGVNVDAFDMWGQGTMVTVSS VL: DIQMTQSPSSLSASVGDRVTITCRTSQSLSSYTHWYQQKPGKAPKLLIYAASSRLSGVPSRFSGSGSGTDFTLTISSLQPEDFATYYCQQSRTFGQGTKVEIK
Neutralization IC50, H3-Perth09 [µg/mL]: 0.17

For the next question, use this binder.
Exam item: Give Neutralization IC50, H3-Perth09 for the following binder: Antibody 15 (antibody, V domains shown) VH: QVQLQQSGPGLVKPSQTLSLTCAISGDSVSSNNAVWNWIRQSPSRGLEWLGRTYYRSKWYNDYAESVKSRITINPDTSKNQFSLQLNSVTPEDTAVYYCARSGHITVFGVNVDAFDMWGQGTTVTVSS VL: DIQMTQSPSSLSASVGDRVTITCRTSQSLSSYTHWYQQKPGKAPKLLIYAASSRGSGVPSRFSGSGSGTDFTLTISSLQPEDFATYYCQQSRTFGQGTKVEIK
Marked response: 0.5
